Let's look at some compounds and their measured inhibition of growth at 10 µM.
system: NCI-H460; assay: Antiproliferative activity against human NCI-H460 cells assessed as cell growth inhibition at 10 uM incubated for 24 hrs by sulforhodamine B assay; assay type: functional; details: read-out: GI
Give the figure together with its unit, number first.

{"smiles-representation": "COc1ccc(OC)c(-c2nc(SCC(=O)c3ccc(Br)cc3)nc(Nc3ccc(S(N)(=O)=O)cc3)c2C#N)c1", "test-readout": "inhibition of growth at 10 µM", "reported-result": "79.2%"}
{"smiles-representation": "Cc1ccc(-c2nc(SCC(=O)c3ccccc3)nc(Nc3ccc(S(N)(=O)=O)cc3)c2C#N)cc1", "test-readout": "inhibition of growth at 10 µM", "reported-result": "34.8%"}
{"smiles-representation": "COc1ccc(C(=O)CSc2nc(Nc3ccc(S(N)(=O)=O)cc3)cc(-c3ccccc3)n2)cc1", "test-readout": "inhibition of growth at 10 µM", "reported-result": "26.9%"}
{"smiles-representation": "COc1ccc(OC)c(-c2nc(SCC(=O)c3ccccc3)nc(Nc3ccc(S(N)(=O)=O)cc3)c2C#N)c1", "test-readout": "inhibition of growth at 10 µM", "reported-result": "10.9%"}

--- query ---
Ask: Consider the compound COc1ccc(OC)c(-c2nc(SCC(=O)c3ccc(Br)cc3)nc(Nc3cccc(S(N)(=O)=O)c3)c2C#N)c1 . State its measured inhibition of growth at 10 µM.
Reply: 22.5%
